- system-under-test: HER2 WT (Homo sapiens)
- Sequence (P04626 23-1255): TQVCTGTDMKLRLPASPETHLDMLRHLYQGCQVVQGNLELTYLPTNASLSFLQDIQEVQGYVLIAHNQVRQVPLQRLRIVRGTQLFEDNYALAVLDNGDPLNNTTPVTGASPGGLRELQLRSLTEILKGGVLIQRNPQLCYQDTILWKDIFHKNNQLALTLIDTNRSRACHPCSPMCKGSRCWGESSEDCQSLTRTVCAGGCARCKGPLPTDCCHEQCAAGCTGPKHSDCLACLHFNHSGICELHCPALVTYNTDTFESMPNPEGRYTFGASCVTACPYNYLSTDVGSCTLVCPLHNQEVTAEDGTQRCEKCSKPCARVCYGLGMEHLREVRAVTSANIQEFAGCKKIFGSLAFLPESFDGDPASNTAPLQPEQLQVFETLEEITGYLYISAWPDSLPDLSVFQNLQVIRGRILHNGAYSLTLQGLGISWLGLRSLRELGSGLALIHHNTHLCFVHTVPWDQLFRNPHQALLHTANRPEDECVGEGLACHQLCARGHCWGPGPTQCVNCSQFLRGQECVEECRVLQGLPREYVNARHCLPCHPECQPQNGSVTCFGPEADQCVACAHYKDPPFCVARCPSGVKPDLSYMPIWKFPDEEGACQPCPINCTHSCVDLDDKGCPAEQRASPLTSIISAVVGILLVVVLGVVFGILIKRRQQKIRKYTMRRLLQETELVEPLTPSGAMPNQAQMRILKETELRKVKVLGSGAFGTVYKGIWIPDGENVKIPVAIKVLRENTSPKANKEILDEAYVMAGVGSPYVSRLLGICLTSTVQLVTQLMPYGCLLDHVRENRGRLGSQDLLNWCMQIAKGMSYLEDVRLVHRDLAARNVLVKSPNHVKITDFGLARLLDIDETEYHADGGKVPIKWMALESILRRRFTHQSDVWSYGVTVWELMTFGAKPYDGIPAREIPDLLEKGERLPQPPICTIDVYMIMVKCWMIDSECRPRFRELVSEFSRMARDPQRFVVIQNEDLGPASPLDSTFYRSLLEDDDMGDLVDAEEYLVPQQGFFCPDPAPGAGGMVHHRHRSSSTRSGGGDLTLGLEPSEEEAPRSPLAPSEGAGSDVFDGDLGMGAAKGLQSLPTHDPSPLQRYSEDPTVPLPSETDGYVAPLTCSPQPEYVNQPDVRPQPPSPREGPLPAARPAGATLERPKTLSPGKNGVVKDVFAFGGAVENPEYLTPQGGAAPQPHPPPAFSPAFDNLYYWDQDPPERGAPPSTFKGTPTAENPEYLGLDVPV
- test-description: Activity for inhibiting HER2 (Table B), HER2 WT
- Format: cell-based
- condition-set: Table B; read-out: HER2 WT, potency code (IC50)
pIC50: −log10 of the molar value.
observation-type: pIC50

{"columns": ["smiles-str", "pIC50"],
 "data": [
  ["C=CC(=O)Nc1cc2c(Nc3ccc(OCc4cccc(F)c4)c(Cl)c3)ncnc2cc1OCCCN1CCOCC1", "7.70 to 8.00"],
  ["C=CC(=O)Nc1cc2c(Nc3ccc(OCc4ccccn4)c(Cl)c3)ncnc2cc1OCCN1CC2(CCO2)C1", "8.00 to 8.30"],
  ["C=CC(=O)Nc1cc2c(Nc3ccc(OCc4ccccn4)cc3)ncnc2cc1OCCn1ccnc1", "7.70 to 8.00"]
]}

Here's the next entry for you.
So, `C=CC(=O)Nc1cc2c(Nc3ccc(OCc4ccccn4)cn3)ncnc2cc1OCCN1CCOCC1` ? Its pIC50 was 6.70 to 7.00

###

- system-under-test: HER2 S310F (Homo sapiens, UniProt P04626, S310F)
- Construct: expressed in transfected cells; host or cells: BaF3 (murine pro-B)
- Sequence (P04626 23-1255 S310F): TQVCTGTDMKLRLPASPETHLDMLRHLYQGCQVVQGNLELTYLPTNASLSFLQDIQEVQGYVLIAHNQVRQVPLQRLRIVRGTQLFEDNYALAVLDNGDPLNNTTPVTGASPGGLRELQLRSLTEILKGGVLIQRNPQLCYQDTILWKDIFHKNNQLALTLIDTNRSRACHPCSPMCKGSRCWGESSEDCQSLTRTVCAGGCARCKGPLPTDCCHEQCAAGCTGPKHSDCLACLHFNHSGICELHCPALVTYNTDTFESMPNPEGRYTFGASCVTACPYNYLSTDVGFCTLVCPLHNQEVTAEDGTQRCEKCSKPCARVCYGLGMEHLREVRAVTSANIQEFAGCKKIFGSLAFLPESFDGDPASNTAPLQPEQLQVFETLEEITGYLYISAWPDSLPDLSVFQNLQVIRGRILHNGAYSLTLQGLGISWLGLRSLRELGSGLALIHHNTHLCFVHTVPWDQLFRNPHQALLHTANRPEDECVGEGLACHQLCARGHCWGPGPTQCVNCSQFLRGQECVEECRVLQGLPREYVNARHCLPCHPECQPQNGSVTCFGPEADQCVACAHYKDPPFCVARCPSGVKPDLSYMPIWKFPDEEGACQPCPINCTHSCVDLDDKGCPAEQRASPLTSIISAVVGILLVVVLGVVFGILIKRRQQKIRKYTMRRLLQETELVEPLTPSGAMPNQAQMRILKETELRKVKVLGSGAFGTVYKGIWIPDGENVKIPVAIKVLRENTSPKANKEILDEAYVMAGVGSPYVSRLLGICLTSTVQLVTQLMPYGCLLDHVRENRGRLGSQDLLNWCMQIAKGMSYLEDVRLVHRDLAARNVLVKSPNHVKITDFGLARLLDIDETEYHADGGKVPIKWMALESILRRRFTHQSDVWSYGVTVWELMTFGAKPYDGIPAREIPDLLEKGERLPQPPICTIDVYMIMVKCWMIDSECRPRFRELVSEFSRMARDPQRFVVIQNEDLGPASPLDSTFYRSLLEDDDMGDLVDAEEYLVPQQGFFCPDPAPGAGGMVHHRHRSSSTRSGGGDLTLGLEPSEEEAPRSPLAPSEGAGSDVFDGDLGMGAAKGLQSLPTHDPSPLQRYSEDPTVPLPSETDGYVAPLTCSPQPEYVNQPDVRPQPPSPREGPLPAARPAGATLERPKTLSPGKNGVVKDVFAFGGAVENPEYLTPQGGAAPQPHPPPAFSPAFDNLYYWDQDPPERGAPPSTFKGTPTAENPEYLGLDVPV
- test-description: BaF3 cell proliferation assay, HER2 S310F (Table B)
- Assay type: cell-based
- condition-set: potency code, 3 days, CellTiterGlo, read-out: HER2 S310F (Activity for Inhibiting HER2)
pIC50: −log10 of the molar value.
observation-type: pIC50

See these solved cases before continuing.
{"columns": ["smiles-str", "system-under-test", "pIC50"],
 "data": [
  ["C=CC(=O)Nc1cc2c(Nc3ccc(OCc4cccc(C)n4)c(Cl)c3)ncnc2cc1OCCN1CC2CCC(C1)O2", "HER2 S310F (Homo sapiens, UniProt P04626, S310F)", "6.30 to 6.52"],
  ["C=CC(=O)Nc1cc2c(Nc3ccc(OCc4ccccn4)c(Cl)c3)ncnc2cc1OCCN1C2CCC1COC2", "HER2 S310F (Homo sapiens, UniProt P04626, S310F)", "7.30 to 7.52"],
  ["C=CC(=O)Nc1cc2c(Nc3ccc(OCc4ccccn4)c(Cl)c3)ncnc2cc1OC[C@H]1C[C@@H]2CN(C)C[C@@H]2C1", "HER2 S310F (Homo sapiens, UniProt P04626, S310F)", "7.70 to 8.00"],
  ["C=CC(=O)Nc1cc2c(Nc3ccc(OCc4cccnn4)c(Cl)c3)ncnc2cc1OCCN1CCN(C)CC1", "HER2 S310F (Homo sapiens, UniProt P04626, S310F)", "7.00 to 7.30"],
  ["C=CC(=O)Nc1cc2c(Nc3ccc(OCc4cccc(F)c4)c(Cl)c3)ncnc2cc1OCCCN1C[C@@H]2C[C@H]1CO2", "HER2 S310F (Homo sapiens, UniProt P04626, S310F)", "7.00 to 7.30"]
]}

molecule `CC#CC(=O)Nc1cc2c(Nc3cc(Cl)c(OCc4cccc(F)c4)cc3F)ncnc2cc1OCCCN1CCOCC1` , pIC50 observed: 7.70 to 8.00

In plain terms, `C=CC(=O)Nc1cc2c(Nc3ccc(OCc4ccccn4)c(Cl)c3)ncnc2cc1C#CC12CCN(CC1)CC2` has a documented pIC50 of 7.30 to 7.52

###

- system-under-test: HER2 S310F (Homo sapiens, UniProt P04626, S310F)
- Construct: expressed in transfected cells; host or cells: BaF3 (murine pro-B)
- test-description: Activity for inhibiting HER2 (Table B), HER2 S310F
- Type: cell-based
- condition-set: read-out: HER2 S310F, potency code (IC50)
pIC50: −log10 of the molar value.
observation-type: pIC50

Lab note: compound C=CC(=O)Nc1cc2c(Nc3ccc(OCc4cccc(C)n4)c(Cl)c3)ncnc2cc1O[C@@H]1CCN(C)C1 [compound 140] tested on HER2 S310F (Homo sapiens, UniProt P04626, S310F); recorded pIC50 was 6.70 to 7.00

Entry C=CC(=O)Nc1cc2c(Nc3ccc(OCc4ccccn4)c(Cl)c3)ncnc2cc1OCC1CN(C)C1 [compound 123] under HER2 S310F (Homo sapiens, UniProt P04626, S310F) had pIC50 of 7.30 to 7.52

pIC50 for HER2 S310F (Homo sapiens, UniProt P04626, S310F) with input C=CC(=O)Nc1cc2c(Nc3cc(Cl)c(OCc4cccc(F)c4)cc3F)ncnc2cc1O[C@@H]1CCN(C)C1 [compound 133] equals 7.00 to 7.30

Noted pIC50 for C=CC(=O)Nc1cc2c(Nc3ccc(OCc4ccccn4)c(Cl)c3)c(C#N)cnc2cc1OCCN1CCOCC1 [compound 11] , tested on HER2 S310F (Homo sapiens, UniProt P04626, S310F): 7.00 to 7.30

Bench note, HER2 S310F (Homo sapiens, UniProt P04626, S310F): C=CC(=O)Nc1cc2c(Nc3ccc(OCc4cccc(C(F)(F)F)n4)c(Cl)c3)ncnc2cc1OCCN1CCOCC1 [compound 23] , pIC50 reads 6.70 to 7.00

Noted pIC50 for C=CC(=O)Nc1cc2c(Nc3cc(Cl)c(OCc4cccc(F)c4)cc3F)ncnc2cc1OCCN1CC2CCC(C1)O2 [compound 147] , tested on HER2 S310F (Homo sapiens, UniProt P04626, S310F): 7.00 to 7.30

Considering C=CC(=O)Nc1cc2c(Nc3ccc(OCc4cccc(F)c4)c(Cl)c3)ncnc2cc1N(C)CCN1CCOCC1 [compound 2] , its pIC50 with HER2 S310F (Homo sapiens, UniProt P04626, S310F) was recorded as 6.30 to 6.52

Entry CC#CC(=O)Nc1cc2c(Nc3ccc(OCc4ccccn4)c(Cl)c3)ncnc2cc1OC1CCN(C)C1 (centres unmarked) [compound 67] , tested on HER2 S310F (Homo sapiens, UniProt P04626, S310F), has a reported pIC50 of 7.70 to 8.00
